Hello, the source for this data is PubChem BioAssay (NCATS), in case you need it.

Assay: High Content Imaging Cell-Based qHTS for Inhibitors of the mTORC1 Signaling Pathway in MEF (Tsc2-/-, p53-/-) Cells (AID 2666);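 note: percent of cells scored positive for phospho-rpS6 Ser235/236 immunostaining by imaging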
Settings: series mostly up to 38.3 µM
Results filed as inconclusive are left out. The source made the active and inactive calls. Calls come from the whole dose curve; as a rule, active = well fitted inhibition curve with a large enough effect; inconclusive = small, poorly fitted or top-dose-only effect; inactive = flat fitted curve, though single readings scatter.
Response enum: active, inactive

Query: Could you please tell me the result logged for `N#Cc1cc([N+](=O)[O-])c2sc(C(N)=O)[n+]([O-])c2c1` in this assay?
Response: active

Query: Param item: `O=S(=O)(c1cccc2c(Cl)cccc12)N1CCCNCC1`
Response: inactive

Query: What do we get for `N#Cc1cc2nc(O)c(O)nc2cc1[N+](=O)[O-]` ?
Response: inactive

Query: Now give it for `COc1cc(/C=C(\C#N)C(=O)Nc2nnc(C(F)(F)F)s2)ccc1OCc1ccc(C(F)(F)F)cc1C(F)(F)F` too.
Response: inactive

Query: Now the compound `Oc1cc(O)c2c(c1)O[C@H](c1ccc(O)c(O)c1)[C@@H](O)C2`
Response: inactive

Query: Check `CSC(=N)N` too.
Response: inactive

Query: What about `NC(N)=NC(N)=Nc1ccccc1` ?
Response: inactive

Query: Same again, this time with `Nn1nnc2ccccc21`
Response: inactive

Query: What do you get for O=C1C2C=CC=CC2=NC(=S)N1CCN1CCC(=C(c2ccc(F)cc2)c2ccc(F)cc2)CC1 (stereo unspecified) ?
Response: inactive

Query: Do the same for `CCCCCC[C@@H]([C@@H](C)O)n1cnc2c(N)ncnc21` please
Response: inactive

Query: What about this compound? `CCCOC(=O)c1c(-c2ccccc2)nc(CC)c(C(=O)SCC)c1CCC`
Response: inactive

----------
Assay: qHTS to identify inhibitors of the type 1 interferon - major histocompatibility complex class I in skeletal muscle: primary screen against the NCATS LOPAC collection (AID 1347405);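 note: human myoblasts with HiBiT tag on endogenous HLA-B stimulated by IFN-beta; lytic HiBiT luminescence reporting HLA-B protein level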
Settings: iHSKM muscle cells, IFN-b-induced MHC-I HiBiT luminescence, 24 h; series mostly up to 45.9 µM
Results filed as inconclusive are left out. Activity calls are given as the source filed them. Calls follow the shape of the dose curve; as a rule, active = well fitted inhibition curve with a large enough effect; inconclusive = small, poorly fitted or top-dose-only effect; inactive = flat fitted curve, though single readings scatter.
The reply should name one outcome from active, inactive

Query: Call for entry `N[C@@H](Cc1c[nH]c2ccccc12)C(=O)O` :
Response: inactive

Query: Item: CCOC(=O)C12CC1/C(=N/O)c1ccccc1O2 (stereo not drawn)
Response: inactive

Query: Input Cn1cc(C(F)(F)F)nc1-c1ccc(OCC(O)CNCCOc2ccc(O)c(C(N)=O)c2)cc1 (stereo not drawn)
Response: inactive

Query: Same question for `CCn1c(=O)[nH]c2cc(Cl)c(Cl)cc21` please.
Response: active

Query: Thanks! And `NCCCNCCCCNCCCN` ?
Response: inactive

Query: # iterate: `C#CCn1c(=O)c2c(ncn2C)n(C)c1=O`
Response: inactive

Query: Okay, and O[Si](CCCN1CCCCC1)(c1ccc(F)cc1)C1CCCCC1 (stereo not drawn) ?
Response: inactive

Query: Item: `[Li+]`
Response: inactive

Query: Next up: CN1C2CCC1CC(OC(c1ccccc1)c1ccccc1)C2 (stereo not drawn)
Response: inactive

Query: Now consider `c1ccc2nc(C3=NCCN3)ccc2c1` and answer again.
Response: inactive

Query: # repeat for `OC[C@H]1O[C@H](n2cnc3c(N[C@H]4CCC[C@@H]4O)ncnc32)[C@H](O)[C@@H]1O`
Response: inactive

Query: Next up: `N#C/C(=C\c1ccc(O)c(O)c1)C(=O)NCCCNC(=O)/C(C#N)=C/c1ccc(O)c(O)c1`
Response: inactive

Query: Then this compound: CC(N)(Cc1ccc(O)cc1)C(=O)O (stereo not drawn)
Response: inactive

Query: Again, but for `CCN(c1nc(N)c(C(=O)N=C(N)N)nc1Cl)C(C)C`
Response: inactive

Query: Let us now turn to NC1CCN(O)C1=O (stereo not drawn)
Response: inactive

Query: One more compound: `COc1cc(CC(=O)O)ccc1O`
Response: inactive

Query: Entry `Cn1ccnc1` please
Response: inactive

Query: How about this compound: `CCCCCC[C@@H]([C@@H](C)O)n1cnc2c(N)ncnc21`
Response: inactive

----------
Target: Metallo-beta-lactamase type 2 (Klebsiella pneumoniae) (UniProt C7C422)
Sequence (C7C422 whole entry, looked up): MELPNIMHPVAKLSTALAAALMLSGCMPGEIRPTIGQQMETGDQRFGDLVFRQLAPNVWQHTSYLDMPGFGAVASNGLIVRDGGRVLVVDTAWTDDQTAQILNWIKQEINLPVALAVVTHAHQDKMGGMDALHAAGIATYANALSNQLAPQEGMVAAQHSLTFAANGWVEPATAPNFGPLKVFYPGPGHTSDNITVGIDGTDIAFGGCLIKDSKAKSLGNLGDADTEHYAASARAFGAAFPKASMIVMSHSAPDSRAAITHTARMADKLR
Assay: qHTS to identify inhibitors of the New Delhi Metallo-beta-lactamase (NDM): assay validation screen against the NCATS LOPAC Collection (AID 1794843)
Conditions: NDM-1 enzyme, nitrocefin hydrolysis, absorbance 485 nm; series mostly up to 38.4 µM
Results filed as inconclusive are left out. Active and inactive are the calls of the source. Calls follow the shape of the dose curve; as a rule, active = well fitted curve in the direction sought with a large enough effect; inconclusive = small, poorly fitted or top-dose-only effect, or another doubt; inactive = no such curve, though single readings can be large or run the other way.
Permitted responses: active, inactive

Query: Called result for `CC(=O)NNC(=O)N1Cc2ccccc2Oc2ccc(Cl)cc21`
Response: inactive

Query: Same read-out for `O=c1cc(-c2ccccc2F)[nH]c2cc3c(cc12)OCO3` ?
Response: inactive

Query: Now consider `Cn1ccnc1` .
Response: inactive

Query: Next up: `O=C(O)C1=CC(=C(c2ccc(O)c(C(=O)O)c2)c2ccc(O)c(C(=O)O)c2)C=CC1=O`
Response: active

Query: For `Nc1nc2ccc(Cl)cc2c2nc(-c3ccco3)nn12` then?
Response: inactive

Query: Next molecule: `CCCC[C@@]1(C2CCCC2)Cc2cc(OCC(=O)O)c(Cl)c(Cl)c2C1=O`
Response: inactive

Query: Continue with NC1CCN(O)C1=O (stereo not given)
Response: inactive

Query: Thanks! And `CC(C)Cn1c(=O)n(C)c(=O)c2[nH]cnc21` ?
Response: inactive

Query: Same thing, different molecule: CN1Cc2sccc2C(c2ccc(O)c(O)c2)C1 (stereo not given)
Response: inactive

Query: Next: `Cn1c(=O)[nH]c2ncn(C)c2c1=O`
Response: inactive

----------
Molecular target: 3',5'-cyclic-AMP phosphodiesterase 4B (Homo sapiens)
Assay: qHTS Assay for Inhibitors of PDE-IV (AID 607)
Conditions: HEK293 ACTOne CNG channel cells, membrane potential fluorescence; series mostly up to 22.9 µM
Results filed as inconclusive are left out. The source made the active and inactive calls. Calls come from the whole dose curve; as a rule, active = well fitted activation curve with a large enough effect in the main read-out, with a control signal flat (not every such curve was filed as active); inconclusive = small, poorly fitted or top-dose-only effect, or effect the other way, or a change in a side signal; inactive = flat fitted curve, though single readings scatter.
One label from this list, please: Yes (active), No (inactive)

Query: Lab log entry: `O=C(O)c1ccccc1Nc1cccc(OCc2ccc3ccccc3n2)c1` — outcome as called in the assay?
Response: No

Query: Lookup `CCCCOC(=O)NS(=O)(=O)c1sc(CC(C)C)cc1-c1ccc(Cn2c(CC)nc3c(C)cc(C)nc32)cc1`
Response: No

Query: Now this one: `C[C@H](O)C(=O)C1=Nc2c(nc(N)[nH]c2=O)NC1`
Response: No

Query: Then `O=C(O)c1cc2cc(F)ccc2[nH]1` ?
Response: No

Query: Another molecule: `CCCn1c(=O)c(C)cn2nc(N)nc12`
Response: Yes

Query: // query: `[Li+]`
Response: No

Query: Next record, please: `O=c1[nH]ccc2c(O)cccc12`
Response: No

Query: Now the molecule `NCCNS(=O)(=O)c1cccc2c(Cl)cccc12`
Response: No

Query: And the next one, `NCCCNCCCCNCCCN` ?
Response: No

----------
Test: Validation screen for small molecules that induce DNA re-replication in MCF 10A normal breast cells (AID 463097); note: nearly all actives have a fitted effect of over 60% in size
Conditions: MCF 10A cells, DNA re-replication phenotype imaging; series mostly up to 46.1 µM
Records with an inconclusive call do not appear. The source made the active and inactive calls. Calls come from the whole dose curve; as a rule, active = well fitted activation curve with a large enough effect; inconclusive = small, poorly fitted or top-dose-only effect; inactive = flat fitted curve, though single readings scatter.
Outcome (select one): y for active, n for inactive

Query: Which result was noted for this compound in the test: `Fc1ccc(CN(C2=NCCN2)c2c(Cl)cccc2Cl)cc1`
Response: n

Query: Entry CC(N)(C(=O)O)c1ccc(C(=O)O)cc1 (stereo not drawn) please
Response: n

Query: Lookup `O=C(O)c1ccccc1Nc1cccc(OCc2ccc3ccccc3n2)c1`
Response: n

Query: What do you have for `Nc1ccc(-c2ccc3ccccc3n2)cc1` ?
Response: y

Query: Similarly, `N[C@H](C(=O)O)c1cc(O)cc(O)c1` ?
Response: n

Query: Same question for `C[C@@]1(C2CCCC2)Cc2cc(OCC(=O)O)c(Cl)c(Cl)c2C1=O` please.
Response: n

Query: Now try `CCN(CC)CCCCCCCCOC(=O)c1cc(OC)c(OC)c(OC)c1` .
Response: n

Query: Next entry: `CC(=O)/C(C)=N/O`
Response: n

Query: Record: `C/C(=C\c1ccc(C(=O)O)cc1)c1ccc2c(c1)C(C)(C)CCC2(C)C`
Response: y

Query: Moving on to `O=C(O)c1ccccc1Nc1ccccc1`
Response: n

Query: Entry `COc1ccccc1N1CCN(CCCNc2c(C)c(=O)n(C)c(=O)n2C)CC1` please
Response: n

Query: Also need Cc1cccc(C2CN(C)CCc3c2cc(O)c(O)c3Cl)c1 (stereo not drawn) , thanks.
Response: n

Query: # iterate: `CSC(N)=NCCC[C@H](N)C(=O)O`
Response: n

Query: Next up: `Nc1ccc2c3c(cccc13)C(=O)NC2=O`
Response: n

Query: Next compound: `CC(N)=O`
Response: n

Query: Cool, now C#CC(N)CCC(=O)O (stereo not drawn)
Response: n

Query: What about this compound? `O=c1[nH]c(=O)c2nc3ccccc3nc2[nH]1`
Response: n

Query: Now the same for `c1ccc2c(c1)CC(N1CCN(c3cccc4c3OCCO4)CC1)C2`
Response: n
